Below, each entry is listed with its recorded Ki.
subject_of_test: Adenosine receptor A1 (Homo sapiens)
Sequence (P30542 whole entry): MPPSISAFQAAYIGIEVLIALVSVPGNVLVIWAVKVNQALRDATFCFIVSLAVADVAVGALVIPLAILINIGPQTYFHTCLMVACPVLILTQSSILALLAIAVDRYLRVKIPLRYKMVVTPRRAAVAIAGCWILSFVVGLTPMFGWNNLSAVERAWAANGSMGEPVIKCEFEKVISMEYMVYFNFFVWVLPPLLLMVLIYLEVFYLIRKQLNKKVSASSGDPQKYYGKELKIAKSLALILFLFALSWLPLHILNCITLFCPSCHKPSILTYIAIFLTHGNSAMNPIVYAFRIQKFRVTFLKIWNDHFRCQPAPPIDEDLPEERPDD
procedure_text: Displacement of [3H]DPCPX from human adenosine A1 receptor expressed in CHO cells
Type: cell-based
measurement_type: Ki (nM)

1. Cn1cc2c(NC(=O)Nc3cccc(Cl)c3)nc(-c3ccccc3)nc2n1 : 922
2. O=C(Nc1nc(-c2ccccc2)nc2nn(Cc3ccccc3)cc12)c1ccccc1 : 53
3. Cn1cc2c(NC(=O)c3ccccc3)nc(-c3ccccc3)nc2n1 : 334

----------
Entries with reported pKi on Adenosine receptor A2a (Homo sapiens)
Sequence (P29274 whole entry): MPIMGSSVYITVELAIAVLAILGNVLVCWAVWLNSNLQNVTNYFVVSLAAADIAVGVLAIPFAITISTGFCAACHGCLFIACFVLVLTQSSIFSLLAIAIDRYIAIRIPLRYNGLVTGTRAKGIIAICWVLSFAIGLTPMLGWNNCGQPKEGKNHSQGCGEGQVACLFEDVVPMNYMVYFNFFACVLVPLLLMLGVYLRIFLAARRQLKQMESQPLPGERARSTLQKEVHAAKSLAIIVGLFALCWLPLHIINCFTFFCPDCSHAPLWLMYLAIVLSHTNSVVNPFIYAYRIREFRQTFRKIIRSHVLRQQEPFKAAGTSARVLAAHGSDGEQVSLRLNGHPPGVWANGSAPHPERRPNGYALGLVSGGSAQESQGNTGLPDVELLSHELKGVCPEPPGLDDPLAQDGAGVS
pKi: −log10 of the molar value.
measurement_type: pKi

1. O=C(Nc1ncnc2nn(Cc3ccccc3)cc12)c1cccc(Cl)c1 : 5.31
2. Cn1cc2c(NC(=O)c3cccc(Cl)c3)nc(-c3ccccc3)nc2n1 : 6.05
3. COc1ccc(C(=O)Nc2nc(-c3ccccc3)nc3nn(C)cc23)cc1 : 5.50
4. O=C(Nc1nc(-c2ccccc2)nc2nn(CCc3ccccc3)cc12)c1ccccc1 : 6.64
5. O=C(Nc1nc(-c2ccccc2)nc2nn(CCc3ccccc3)cc12)c1cccc(Cl)c1 : 6.50

----------
subject_of_test: UniProt:P0DMS8
Items are presented alongside their recorded Ki.
measurement_type: Ki (µM)

1. COc1ccc(NC(=O)Nc2nc(-c3ccccc3)nc3nn(Cc4ccccc4)cc23)cc1 : 0.0029
2. O=C(Nc1nc(-c2ccccc2)nc2nn(Cc3ccccc3)cc12)c1cccc(Cl)c1 : 0.0037
3. O=C(Nc1ccccc1)Nc1nc(-c2ccccc2)nc2nn(Cc3ccccc3)cc12 : 0.0029
4. COc1ccc(C(=O)Nc2nc(-c3ccccc3)nc3nn(CCc4ccccc4)cc23)cc1 : 0.0452
5. Nc1nc(-c2ccccc2)nc2nn(Cc3ccccc3)cc12 : 0.093
6. Nc1nc(-c2ccccc2)nc2nn(CCc3ccccc3)cc12 : 0.503
7. Cn1cc2c(NC(=O)Nc3cccc(Cl)c3)nc(-c3ccccc3)nc2n1 : 0.0291
8. Cn1cc2c(N)nc(-c3ccccc3)nc2n1 : 0.922
9. COc1ccc(C(=O)Nc2nc(-c3ccccc3)nc3nn(Cc4ccccc4)cc23)cc1 : 0.0221
10. COc1ccc(C(=O)Nc2nc(-c3ccccc3)nc3nn(C)cc23)cc1 : 0.00018
11. O=C(Nc1ccccc1)Nc1nc(-c2ccccc2)nc2nn(CCc3ccccc3)cc12 : 0.0363
12. O=C(Nc1nc(-c2ccccc2)nc2nn(CCc3ccccc3)cc12)c1ccccc1 : 0.0437
13. Cn1cc2c(NC(=O)c3cccc(Cl)c3)nc(-c3ccccc3)nc2n1 : 0.0059

----------
logP overview
procedure_text: Octanol-water partition coefficient, log P of the compound
Type: physicochemical
measurement_type: logP

1. COc1ccc(C(=O)Nc2nc(-c3ccccc3)nc3nn(C)cc23)cc1 : 4
2. Cn1cc2c(NC(=O)c3ccccc3)nc(-c3ccccc3)nc2n1 : 3.8

----------
subject_of_test: Adenosine receptor A2b (Homo sapiens, UniProt P29275)
Sequence (P29275 whole entry): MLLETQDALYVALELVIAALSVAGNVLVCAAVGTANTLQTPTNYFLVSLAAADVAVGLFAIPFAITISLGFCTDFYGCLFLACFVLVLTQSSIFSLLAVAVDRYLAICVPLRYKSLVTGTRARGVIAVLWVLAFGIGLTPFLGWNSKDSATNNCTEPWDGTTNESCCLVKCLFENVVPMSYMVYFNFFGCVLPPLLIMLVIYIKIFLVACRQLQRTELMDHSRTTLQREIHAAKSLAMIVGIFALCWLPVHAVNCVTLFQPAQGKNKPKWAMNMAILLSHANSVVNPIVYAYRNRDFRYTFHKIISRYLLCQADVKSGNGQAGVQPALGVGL
procedure_text: Antagonist activity human recombinant adenosine A2B receptor expressed in CHO cells assessed as inhibition of NECA-mediated [3H]cAMP accumulation treated 15 mins before NECA challenge measured after 30 mins by liquid scintillation spectrometry
measurement_type: log10 of IC50 (log10 of the value in nM)

1. COc1ccc(C(=O)Nc2nc(-c3ccccc3)nc3nn(C)cc23)cc1 : 1.73
2. O=C(Nc1nc(-c2ccccc2)nc2nn(Cc3ccccc3)cc12)c1cccc(Cl)c1 : 3.12
3. Cn1cc2c(NC(=O)c3ccccc3)nc(-c3ccccc3)nc2n1 : 1.70
4. O=C(Nc1nc(-c2ccccc2)nc2nn(Cc3ccccc3)cc12)c1ccccc1 : 2.43
5. O=C(Nc1ccccc1)Nc1nc(-c2ccccc2)nc2nn(Cc3ccccc3)cc12 : 3.12
6. COc1ccc(NC(=O)Nc2nc(-c3ccccc3)nc3nn(Cc4ccccc4)cc23)cc1 : 3.17

----------
Known pIC50 of a selection of molecules
subject_of_test: Adenosine receptor A3 (Homo sapiens, UniProt P0DMS8)
Sequence (P0DMS8 whole entry): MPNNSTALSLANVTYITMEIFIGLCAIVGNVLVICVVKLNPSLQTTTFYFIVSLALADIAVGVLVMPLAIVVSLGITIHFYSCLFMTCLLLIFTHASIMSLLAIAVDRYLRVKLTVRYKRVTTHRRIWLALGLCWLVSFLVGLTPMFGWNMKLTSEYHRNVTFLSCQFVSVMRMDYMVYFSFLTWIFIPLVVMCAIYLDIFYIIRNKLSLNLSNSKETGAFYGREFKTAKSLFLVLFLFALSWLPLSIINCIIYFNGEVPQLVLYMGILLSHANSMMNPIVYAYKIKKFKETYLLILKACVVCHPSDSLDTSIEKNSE
procedure_text: Antagonist activity at adenosine A3 receptor in human U87MG cells assessed as inhibition of Cl-IB-MECA-mediated ERK1/2 phosphorylation after 30 mins by ELISA
Assay type: functional, cell-based, U-87MG ATCC
pIC50: −log10 of the molar value.
measurement_type: pIC50

1. Cn1cc2c(NC(=O)c3ccccc3)nc(-c3ccccc3)nc2n1 : 9.13
2. COc1ccc(C(=O)Nc2nc(-c3ccccc3)nc3nn(C)cc23)cc1 : 10.21

----------
subject_of_test: Adenosine receptor A1 (Homo sapiens, UniProt P30542)
procedure_text: Inhibition of human adenosine A1 receptor
pKi: −log10 of the molar value.
measurement_type: pKi

1) Cc1cn2c(NC(=O)c3ccccc3)nc(-c3ccccc3)nc2n1 : 6.46

----------
subject_of_test: Adenosine receptor A3 (Homo sapiens, UniProt P0DMS8)
procedure_text: Antagonist activity human recombinant adenosine A3 receptor expressed in CHO cells assessed as blockade of NECA-mediated inhibition of forskolin-stimulated [3H]cAMP production treated 15 mins before NECA challenge measured after 30 mins by liquid scintillation spectrometry
Type: functional, cell-based
pIC50: −log10 of the molar value.
In this section, each of the compounds is paired with its reported pIC50.
measurement_type: pIC50

1) O=C(Nc1nc(-c2ccccc2)nc2nn(Cc3ccccc3)cc12)c1cccc(Cl)c1 : 8.12
2) Cn1cc2c(NC(=O)c3ccccc3)nc(-c3ccccc3)nc2n1 : 8.72
3) COc1ccc(C(=O)Nc2nc(-c3ccccc3)nc3nn(C)cc23)cc1 : 8.62
4) COc1ccc(NC(=O)Nc2nc(-c3ccccc3)nc3nn(Cc4ccccc4)cc23)cc1 : 8.09
5) O=C(Nc1ccccc1)Nc1nc(-c2ccccc2)nc2nn(Cc3ccccc3)cc12 : 8.24
6) O=C(Nc1nc(-c2ccccc2)nc2nn(Cc3ccccc3)cc12)c1ccccc1 : 7.28

----------
subject_of_test: Adenosine receptor A2a (Homo sapiens)
pKi: −log10 of the molar value.
measurement_type: pKi

1) COc1ccc(NC(=O)Nc2nc(-c3ccccc3)nc3nn(CCc4ccccc4)cc23)cc1 : < 5.00
2) COc1ccc(NC(=O)Nc2nc(-c3ccccc3)nc3nn(Cc4ccccc4)cc23)cc1 : < 5.00
3) O=C(Nc1nc(-c2ccccc2)nc2nn(Cc3ccccc3)cc12)c1cccc(Cl)c1 : < 5.00
4) O=C(Nc1ccccc1)Nc1nc(-c2ccccc2)nc2nn(Cc3ccccc3)cc12 : < 5.00
5) Cn1cc2c(NC(=O)Nc3ccccc3)nc(-c3ccccc3)nc2n1 : < 5.00
6) Cn1cc2c(N)nc(-c3ccccc3)nc2n1 : < 5.00
7) O=C(Nc1ncnc2nn(Cc3ccccc3)cc12)c1ccccc1 : < 5.00
